All values here come from patent US7244837B2.

# assay-target: OA/TAT (octopamine/tyramine transporter) (Trichoplusia ni, UniProt Q95VZ4, D309A/R312W)
# Sequence (Q95VZ4 75-744 D309A/R312W): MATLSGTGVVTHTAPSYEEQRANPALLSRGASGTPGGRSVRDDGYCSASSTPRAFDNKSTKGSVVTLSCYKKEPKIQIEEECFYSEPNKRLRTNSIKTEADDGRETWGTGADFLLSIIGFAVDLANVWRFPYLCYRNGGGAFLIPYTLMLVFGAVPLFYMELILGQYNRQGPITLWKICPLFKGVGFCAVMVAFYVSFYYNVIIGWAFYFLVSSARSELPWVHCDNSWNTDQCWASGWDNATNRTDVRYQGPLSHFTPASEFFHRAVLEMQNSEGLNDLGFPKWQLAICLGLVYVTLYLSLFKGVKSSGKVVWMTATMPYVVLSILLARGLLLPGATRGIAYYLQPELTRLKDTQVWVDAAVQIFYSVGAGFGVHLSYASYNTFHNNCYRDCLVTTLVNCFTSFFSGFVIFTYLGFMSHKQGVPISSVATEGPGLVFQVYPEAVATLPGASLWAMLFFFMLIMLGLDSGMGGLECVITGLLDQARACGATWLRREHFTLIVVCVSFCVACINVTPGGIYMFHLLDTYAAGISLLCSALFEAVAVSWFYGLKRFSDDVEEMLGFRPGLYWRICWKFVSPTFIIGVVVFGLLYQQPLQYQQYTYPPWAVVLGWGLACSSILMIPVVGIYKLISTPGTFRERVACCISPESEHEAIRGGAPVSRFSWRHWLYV
# method-summary: 3H-dopamine uptake by OA/TAT expressed in baculovirus-infected Sf21 insect cells (transport assay)
property: pIC50
// field semantics: pIC50 = negative decimal log of concentration (mol/L)

Ask: Given the molecule NCCc1ccc(O)c(O)c1 [Dopamine, 3-Hydroxytyramine] , what is its reported pIC50?
Reply: 5.39

Ask: // same read-out, input: NCCc1ccc(O)cc1
Reply: 6.41

Ask: Would you kindly repeat that for NC[C@H](O)c1ccc(O)c(O)c1 [Norepinephrine, (−)-Arterenol] ?
Reply: 4.66

Ask: // next record NCC(O)c1ccc(O)cc1 (racemic)
Reply: 5.72
